Target: T1, recombinant human ZNRF3 extracellular domain (human, UniProt Q9ULT6 56-219)
T1 construct: extracellular domain; also called huZNRF3; human ZNRF3 ECD
T1 sequence (looked up): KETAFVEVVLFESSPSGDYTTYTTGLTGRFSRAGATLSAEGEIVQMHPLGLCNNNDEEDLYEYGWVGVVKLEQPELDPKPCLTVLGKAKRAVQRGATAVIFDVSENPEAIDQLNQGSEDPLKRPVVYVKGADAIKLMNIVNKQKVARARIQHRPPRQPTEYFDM
Assay: SPR Biacore 8K; antibody captured on Protein A; ZNRF3 ECD analyte; 25 C
MEASURED_PARAMETER: Kd (nM)
Enter your answer as a number in nM; do not include the unit.

Form field Kd, entry ZNRF3-275 (antibody, V domains shown, Rat clone; VH/VL only) VH: QVQLKESGPGLVQPSQTLSLTCTVSGFSFNYYNVHWLRQPPGKGLEWLGVIWSGGNRDYNSALKPRLRISRDTSKTQVFLTLNSLQTEDTGIYYCTRMWGYGYNPFDHWGQGVMVTVSS VL: DIQMTQSPSFLSASLGDNITITCHASQDIKGWLAWYQQKSGNAPELLIYKASSLQSGVPSRFSGGGSGTEYVLTISNLQPDDIATYYCQLYHSFPFTFGSGTKLETK : 0.0565

Form field Kd, entry ZNRF3-296 (antibody, V domains shown, Rat clone; VH/VL only) VH: EVQLVESGGGLVQPGKSLRLSCSASGFTFSNYGLHWIRQAPGKGLDWLGYSSSNSGTVYGDAVKGRVTISRDNAKNTLYLQLNSLKSEDTAIYYCARGYSSSPFAYWGQGTLVTVSS VL: DIVLTQSPALAVSLGQRVTISCKASQNVDGFGIGYMHWYQQKPGQKPKLLIFAGSNLASGIPARFSGSGSGTDFTLTIDPVETDDIATYYCQQNKDFPLTFGSGSRLEIT : 0.0371

Form field Kd, entry ZNRF3-265 (antibody, V domains shown, Rat clone; VH/VL only) VH: EVQLVESGGGLVQPGRSMKLSCVASGFSFSKYGMAWVRQAPTKALEWVAIISQDGSRIYYGGSVKGRFTLSRDNEKSTLHLHMNSLRSEDTATYYCARGSILRMITFFDYWGQGVTVTVSS VL: DIQMTQSPASLSASLGETVSIECLASEGISNDLAWYQQKSGKSPRLLIYAASRLQDGVPSRFSGSGSDTRFSLKISGMHPEDEADYFCQQSYGYPLTFGSGTKLEIK : 0.0286

Form field Kd, entry ZNRF3-305 (antibody, V domains shown, Rat clone; VH/VL only) VH: EVLLQQSGAELVRPGSSVKISCKTSGYTFTDYYLHWVKQRPEQGLVWIGRINPINGKTVCIEKFKTKATLTADKSSNTAYMELSSLTSEDTATYFCTRGGLAYWGQGTLVTVSS VL: DIQMTQSPSSLPASLGERVTISCRASQGISNNLNWYQQKPDGTIKPLIYYTSNLQSGVPSRFSGSGSGTDYSLTIGSLEPEDFTMYYCQQDASFPPTFGAGTKLELK : 7.18

Form field Kd, entry ZNRF3-6 (antibody, V domains shown, Rat clone; VH/VL only) VH: EVQLVESGGGLVPPGKSLKLSCSASGFPFSNYGMHWIRQAPGKGLDWVGYISSNSGTIYADAVKGRFTISRDNAKNTLYLLINSLKSEDTAMYYCARGYFDGYYRFWGQGVMVTVSS VL: DIVMTQSPFSLAVSEGDMVTIMCRSSQSLLSSGNQKNYLAWYQQKPGQSPKLLIYHASTRQSGVPDRFIGSGSGTDFTLTISDVQAEDLADYYCLQHYSSPTFGSGTKLEIK : 0.12

Form field Kd, entry ZNRF3-223 (antibody, V domains shown, Rat clone; VH/VL only) VH: EVQLVESGGGLVQPGESLKLSCSASGFTFSNYGMHWIRQVPGKGLDWVAYITNSGGSLYAAAVKGRFTISRDNAKNTLYLELTSLKSEDTAIYHCARGYSYPGPYWGRGTLVTVSS VL: DIQVTQSPSSLLASLGERVTITCQTGQSINNYLNWYQQRPGQAPLLLIYFATSLQTGVPSRFSGQYSGRSFTLTITSLEPEDIANYFCLQHYSPPYTFGAGTKLELR : 0.0443

Form field Kd, entry ZNRF3-182 (antibody, V domains shown, Rat clone; VH/VL only) VH: EVQLAESGGGLEQPGRSLKLSCAASGFTFSNYDMAWVRQAPTKGLEWVASIIKSGDTSYYRDSVKGRFTVSRDNAKSTLYLQMDSLRSEDTATYYCARHGVGSYDWFADWGQGTLVTVSS VL: DIVLTQSPALAVSLGQRATISCRASQSVTISGFNLMHWYQQKPGQQPKLLIYRASNLAFGIPARFSGSGSGTDFTLTINPVQADDFTTYYCQQSRKSRTFGGGTKLELK : 0.06

Form field Kd, entry ZNRF3-301 (antibody, V domains shown, Rat clone; VH/VL only) VH: QVQLKESGPGLVQPSQTLSLTCTVSGFSLTSYSVHWVRQHSGKSLEWMGRIWSDGDTSYNSAFTSRLSISRDTSKSQVFLKMNSLQTEDTGTYYCDRSGGSPFFDYWGQGVMVTVSS VL: QFVLTQSNSVSTNLGSTVKLSCERSIGNIGSNYVNWYQQYEGRSPTTMIYKFDQRPDGVPDRFSGSIDRSSNSVLLTINNVQTEDEADYFCQSYSSDMYIFGGGTKLTVL : 0.0974

Form field Kd, entry ZNRF3-55 (antibody, V domains shown, Rat clone; VH/VL only) VH: EVHLVESGGGLVQPGGSLKLSCAASGFTFSNYDMAWVRQAPTRGLEWVASISPGGGKTYYRDSVKGRLTISRNNAENTQYLQIDSLRSEDTATYYCSRLGPAYSGEWFAYWGQGTLVTVSS VL: DTVLTQSPALTVSPGDKITISCRASEGVNTRIHWYQQKSGQQPKLLIYGASNLDSGVPDRFSGSGFGTDFTLTIDPVEASDTATYFCQQSWNVPHTFGGGTKLELK : 0.02

Form field Kd, entry ZNRF3-195 (antibody, V domains shown, Rat clone; VH/VL only) VH: EVQLVESGGGLVQPGNSLNLSCSASGFPFSTYGMHWIRQAPGKGLDWVAYISYNSGTVYADAVKGRFTISRDNAKNTLYLQLNSLKSEDTAIYYCARGYYDGYYRYWGQGVMVTVSS VL: DIVMTQSPFSLAVSEGEMVTINCKSSQSLLSSGNQKNYLAWYQQRPGQSPKLLIYHASTRQSGVPDRFIGSGSGTDFTLTISDVQAEDLADYYCLQHYSSPTFGSGTKLEIK : 0.27

Data provenance is patent US20240101708A1.
